System: DuPro cells
Assay: Intracellular polyamine and analog levels by HPLC of dansylated extracts
Assay type: cell-based, human
Conditions: 2 μM analog, Day 6 of Treatment
Assay Metric: Analog level (uptake) (nmoles/10^6 cells)

## Task Dear colleague, I am looking for the recorded Analog level (uptake) of the following molecule: CCCCCCCCCCCCCC1CC(=O)NCCCNCCCNCCCN1 (stereo not shown)
## Result 42.341

I. CCCCCCCCCCCCCC1CC(=O)NCCCNCCCNCCCNCCCN1 (stereo not shown)
II. CCCCCCCCCCCCCC1CC(=O)NCCCNCCCCCNCCCN1 (stereo not shown)
III. CCCCCCCCCCCCCC1CC(=O)NCCCNCCCCNCCCN1 (stereo not shown)
## Task Arrange by Analog level (uptake), high to low. Output the labels ranked as instructed.
## Result I, III, II
(I: 49.309 nmoles/10^6 cells, III: 21.472 nmoles/10^6 cells, II: 10.241 nmoles/10^6 cells)

* * *

System: DuPro cells
Test: Intracellular polyamine and analog levels by HPLC of dansylated extracts
Format: cell-based, human
Details: 2 μM analog, Day 4 of Treatment
Experimental: For data shown in Tables 3a and 3b, intracellular polyamine levels were determined using a standard protocol. About 0.5-1×10^6 cells were taken from harvested samples and centrifuged at 1000 rpm at 4° C. for 5 min. […] An appropriate volume (50-100 μl) was fluorescence-labeled by derivatizing with dansyl chloride. […] Peaks were detected and quantitated using a Shimadzu HPLC fluorescence monitor coupled with a Spectra-Physics peak integrator. […]
Assay Metric: Analog level (uptake) (nmoles/10^6 cells)

a. CCCCCCCCCCCCCC1CC(=O)NCCCNCCCCNCCCN1 (stereo not shown)
b. CCCCCCCCCCCCCC1CC(=O)NCCCNCCCNCCCN1 (stereo not shown)
c. CCCCCCCCCCCCCC1CC(=O)NCCCNCCCNCCCNCCCN1 (stereo not shown)
d. CCCCCCCCCCCCCC1CC(=O)NCCCNCCCCCNCCCN1 (stereo not shown)
## Task Sort the list above on Analog level (uptake) in ascending fashion. Output the labels ranked as instructed.
## Result c, d, a, b
(c: 5.989 nmoles/10^6 cells, d: 17.198 nmoles/10^6 cells, a: 25.074 nmoles/10^6 cells, b: 49.072 nmoles/10^6 cells)

* * *

Test system: DuPro
Assay: MTT assay, cell growth inhibition, DuPro
Assay type: cell-based
Conditions: Homo sapiens, 144 h, 6 days with drug, read-out: ID50 DuPro
Assay Metric: IC50 (nM)
Give the quantity in nM, number only.

## Task Which IC50 is reported with DuPro for this entry: CCCCCCCCCCCCCC1CC(=O)NCCCNCCCCNCCCN1 (stereo not shown) [SL-11174] ?
## Result 830

## Task Could you do the same for CCCCCCCCCCCCCC1CC(=O)NCCCNCCCNCCCN1 (stereo not shown) [SL-11197] , please?
## Result 580

## Task Could you do the same for CCCCCCCCCCCCCC1CC(=O)NCCCNCCCNCCCNCCCN1 (stereo not shown) [SL-11200] , please?
## Result 1400

Attention now shifts to the item below.
## Task Which IC50 is reported with DuPro for this entry: CCCCCCCCCCCCCC1CC(=O)NCCCNCCCCCNCCCN1 (stereo not shown) [SL-11199] ?
## Result 1200

Each recorded value in this set is attributed to patent US20050130949A1.
